Item-by-item account of IC50
target: FXR ligand binding domain (Homo sapiens); test: Radioligand Binding Assay (scintillation proximity radioligand displacement); conditions: GST-FXR LBD fusion protein on SPA beads, test compound 6×10^−9 M to 2.5×10^−5 M
// note: answer is a bare numeric in nM

# count of solved cases: 5
The recorded IC50 for entry Fc1cc2nc(-c3ccc(Cl)cc3OC3CCCCC3)n(Cc3ccc(-c4nnn[nH]4)cc3F)c2cc1F [Example 96] equals 20

The recorded IC50 for entry Fc1cc2nc(-c3ccccc3OCc3ccc(-c4nnn[nH]4)cc3F)n(CC3CCCCC3)c2cc1F [Example 34] equals 30

The recorded IC50 for entry Fc1cc2nc(-c3cccnc3OCc3ccccc3Cl)n(Cc3ccccc3)c2cc1F [Example 6] equals 1800

The recorded IC50 for entry CC(C)(C)Cn1c(-c2ccc(Cl)cc2OCc2ccc(-c3nnn[nH]3)cc2F)nc2cc(F)c(F)cc21 [Example 46] equals 400

The recorded IC50 for entry Fc1cc2nc(-c3ccccc3COc3ccc(-c4nnn[nH]4)c(F)c3)n(CC3CCCCC3)c2cc1F [Example 41] equals 200

Continuing:
The recorded IC50 for entry Fc1cc(-c2nnn[nH]2)ccc1COc1cc(Cl)ccc1-c1nc2ccccc2n1CC1CCCCC1 [Example 39] equals 30

The recorded IC50 for entry O=C(Nc1ccc(-c2nnn[nH]2)cc1F)c1ccccc1-c1nc2cc(F)c(F)cc2n1CC1CCCCC1 [Example 86] equals 3

The recorded IC50 for entry O=C(O)COc1ccc(COc2cc(Cl)ccc2-c2nc3cc(F)c(F)cc3n2Cc2cccc(Cl)c2)cc1 [Example 57] equals 200

The recorded IC50 for entry Fc1cc2nc(-c3ccc(Cl)cc3OCc3ccc(-c4nnn[nH]4)s3)n(CC3CCCCC3)c2cc1F [Example 37] equals 200

* * *

target: FXR ligand binding domain (Homo sapiens, UniProt Q96RI1); assay: Radioligand Binding Assay (scintillation proximity radioligand displacement); conditions: GST-FXR LBD fusion protein on SPA beads, test compound 6×10^−9 M to 2.5×10^−5 M
Sequence (Q96RI1 193-472 isoform Q96RI1-2): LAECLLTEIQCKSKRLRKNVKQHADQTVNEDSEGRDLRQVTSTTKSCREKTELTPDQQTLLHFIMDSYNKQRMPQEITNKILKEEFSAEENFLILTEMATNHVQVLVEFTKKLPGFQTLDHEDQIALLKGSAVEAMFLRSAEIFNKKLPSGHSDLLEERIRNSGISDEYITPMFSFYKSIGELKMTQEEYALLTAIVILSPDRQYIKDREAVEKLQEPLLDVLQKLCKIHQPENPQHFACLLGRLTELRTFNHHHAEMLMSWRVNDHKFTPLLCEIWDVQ
measurementLabel: log10 of IC50 (log10 of the value in nM)
Values reflect log10 of reported IC50 (nM).

# count of solved cases: 10
The recorded log10 of IC50 for entry Fc1cc2nc(-c3ccc(Cl)cc3OCc3ccc(-c4nnn[nH]4)cc3F)n(CC3CCCCO3)c2cc1F (stereo not shown) [Example 45] equals 2.00

The recorded log10 of IC50 for entry O=C(O)COc1ccc(COc2ncccc2-c2nc3cc(F)c(F)cc3n2CC2CCCCC2)cc1 [Example 5] equals 4.08

The recorded log10 of IC50 for entry O=C(O)c1ccc(CCc2cc(Cl)ccc2-c2nc3ccccc3n2CC2CCCCC2)cc1 [Example 75] equals 1.48

The recorded log10 of IC50 for entry O=C(O)C1CCC(Cn2c(-c3ccc(Cl)cc3OCC3CCCC3)nc3cc(F)c(F)cc32)CC1 (stereo not shown) [Example 66] equals 3.26

The recorded log10 of IC50 for entry O=C(O)CCc1ccc(Cn2c(-c3cccnc3OCC3CCCC3)nc3cc(F)c(F)cc32)cc1 [Example 18] equals 4.48

The recorded log10 of IC50 for entry O=C(O)c1ccc(CCc2ccccc2-c2nc3cc(F)c(F)cc3n2CC2CCCCC2)cc1 [Example 77] equals 1.48

The recorded log10 of IC50 for entry O=C(O)c1ccc(COc2ncccc2-c2nc3cc(F)c(F)cc3n2Cc2cccc(Cl)c2)cc1 [Example 14] equals 3.72

The recorded log10 of IC50 for entry Fc1cc2nc(-c3ccccc3OCC3CCCC3)n(Cc3ccc(-c4nnn[nH]4)cc3F)c2cc1F [Example 94] equals 1.60

The recorded log10 of IC50 for entry O=C(O)COc1ccc(COc2ncccc2-c2nc3cc(F)c(F)cc3n2Cc2cccc(Cl)c2)cc1 [Example 15] equals 3.41

The recorded log10 of IC50 for entry Fc1cc2nc(-c3ccc(Cl)cc3OCC3CC3)n(CC3CCCCC3)c2cc1F [Example 21] equals 2.48

Continuing:
The recorded log10 of IC50 for entry Fc1cc2nc(-c3ccc(Cl)cc3OCC3CCCC3)n(Cc3cccc(-c4nnn[nH]4)c3)c2cc1F [Example 67] equals 1.95

The recorded log10 of IC50 for entry Fc1cc2nc(-c3ccc(Cl)cc3OCc3ccccc3Cl)n(Cc3ccccc3)c2cc1F [Example 48] equals 2.60

* * *

target: FXR ligand binding domain (Homo sapiens, UniProt Q96RI1); assay: Radioligand Binding Assay (scintillation proximity radioligand displacement); details: GST-FXR LBD fusion protein on SPA beads, test compound 6×10^−9 M to 2.5×10^−5 M
pIC50: −log10 of the molar value.
Everything with pIC50 lower than 7 is F; everything else, including exactly 7, is T.

Solved cases below.
Prompt line: Is it the case that Fc1cc2nc(-c3ccc(Cl)cc3OCc3ccc(-c4nnn[nH]4)cc3F)n(CC3CCCC3)c2cc1F [Example 42] has pIC50 reaching or exceeding 7?
Response line: T

Prompt line: Is it the case that O=C(O)c1ccc(COc2cc(Cl)ccc2-c2nc3cc(F)c(F)cc3n2Cc2cccc(Cl)c2)cc1 [Example 56] has pIC50 reaching or exceeding 7?
Response line: F

Prompt line: Is it the case that O=C(Nc1cc(Cl)ccc1-c1nc2cc(F)c(F)cc2n1CC1CCCCC1)c1ccc(-c2nnn[nH]2)c(F)c1 [Example 85] has pIC50 reaching or exceeding 7?
Response line: T

Prompt line: Is it the case that Fc1cc(-c2nnn[nH]2)ccc1Cn1c(-c2ccc(Cl)cc2OCC2CCCC2)nc2ccccc21 [Example 95] has pIC50 reaching or exceeding 7?
Response line: T

Continuing:
Prompt line: Is it the case that c1ccc(-c2nc3ccccc3n2CCC2CCCCC2)c(CCc2ccc(-c3nnn[nH]3)cc2)c1 [Example 83] has pIC50 reaching or exceeding 7?
Response line: T

Prompt line: Is it the case that COc1cc(-c2nnn[nH]2)ccc1COc1cc(Cl)ccc1-c1nc2cc(F)c(F)cc2n1CC1CCCCC1 [Example 35] has pIC50 reaching or exceeding 7?
Response line: T

Prompt line: Is it the case that Fc1cc2nc(-c3ccc(Cl)cc3OCC3CCCC3)n(CC3CCCCC3)c2cc1F [Example 20] has pIC50 reaching or exceeding 7?
Response line: F

Prompt line: Is it the case that Fc1cc2nc(-c3ccc(Cl)cc3OCc3ccc(-c4nnn[nH]4)cc3F)n(CC3CCCCC3)c2cc1F [Example 32] has pIC50 reaching or exceeding 7?
Response line: T

Prompt line: Is it the case that Fc1cc2nc(-c3cccnc3OCC3CC3)n(CC3CCCCC3)c2cc1F [Example 2] has pIC50 reaching or exceeding 7?
Response line: F

Prompt line: Is it the case that Fc1cc2nc(-c3ccc(Cl)cc3OCC3CCCC3)n(Cc3ccc(-c4nnn[nH]4)cc3F)c2cc1F [Example 70] has pIC50 reaching or exceeding 7?
Response line: T

* * *

target: FXR ligand binding domain (Homo sapiens); assay: Radioligand Binding Assay (scintillation proximity radioligand displacement); conditions: GST-FXR LBD fusion protein on SPA beads, test compound 6×10^−9 M to 2.5×10^−5 M
measurementLabel: pIC50
Entry type: numeric. Quantity: pIC50, the -log10 of concentration in molar units.

The recorded pIC50 for entry "O=C(O)CCc1ccc(Cn2c(-c3ccc(Cl)cc3OCc3ccccc3Cl)nc3cc(F)c(F)cc32)cc1" equals 7.52

* * *

target: FXR ligand binding domain (Homo sapiens, UniProt Q96RI1); construct: made in house; host or cells: E. coli BL21 (pLysS); test: Radioligand Binding Assay (scintillation proximity radioligand displacement); conditions: GST-FXR LBD fusion protein on SPA beads, test compound 6×10^−9 M to 2.5×10^−5 M
pIC50: −log10 of the molar value.
Everything with pIC50 lower than 7 is F; everything else, including exactly 7, is T.

Solved cases below.
Prompt line: Is it the case that "Fc1cc2nc(-c3ccc(Cl)cc3OCc3ccc(-c4nnn[nH]4)cc3F)n(CC3CCOCC3)c2cc1F" has pIC50 reaching or exceeding 7?
Response line: F

Prompt line: Is it the case that Fc1cc2nc(-c3ccc(Cl)cc3OCC3CCCCO3)n(Cc3ccc(-c4nnn[nH]4)cc3F)c2cc1F (stereo not drawn) has pIC50 reaching or exceeding 7?
Response line: T

Prompt line: Is it the case that "Fc1cc2nc(-c3ccc(Cl)cc3CCc3ccc(-c4nnn[nH]4)cc3)n(CC3CCCCC3)c2cc1F" has pIC50 reaching or exceeding 7?
Response line: T

Prompt line: Is it the case that "O=C(O)CCCCCn1c(-c2ccc(Cl)cc2OCC2CCCC2)nc2cc(F)c(F)cc21" has pIC50 reaching or exceeding 7?
Response line: F

Continuing:
Prompt line: Is it the case that "Fc1cc2nc(-c3ccc(Cl)cc3OCC3CC3)n(Cc3ccc(-c4nnn[nH]4)cc3F)c2cc1F" has pIC50 reaching or exceeding 7?
Response line: T
